experiment: AUC (0 to 8 hrs) in Crl:CD (SD) rat at 1000 mg/kg, po after 0.5 to 8 hrs; format: ADME, organism-based; design: time < 8 hr, dose 1000 mg/kg, route oral; conditions: plasma
measurement name: AUC(0-t) at 8 h (ng·h/mL)
Numbers only, in ng·h/mL.

Param item = "COc1cc(-c2cc(=O)c3c(O)cc(O)cc3o2)cc(OC)c1OC(=O)N[C@@H](C)C(=O)N[C@@H](CCC(=O)O)C(=O)O" ; retrieve measured AUC(0-t) at 8 h.
21500

###

test: Stability of the compound in MDCK cell lysate assessed as half life; format: ADME, cell-based, Canis lupus familiaris; details: dog
measurement name: half-life
Give the value; after it, write the unit.

Recorded half-life of "COc1cc(-c2cc(=O)c3c(O)cc(O)cc3o2)cc(OC)c1OC(=O)N[C@@H](C)C(=O)N[C@@H](CCC(=O)O)C(=O)O" , please.
2.75 h

Attribution: ChEMBL document CHEMBL1687917
